# assay.notes: endothelial E-selectin expression blockers – imaging, HUVEC, immunofluorescence, MLSMR starter and 10KST1 sets, primary screen (AID 487);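 further: signal is fraction of cell area covered by stained E-selectin grains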
# measurement.conditions: HUVEC TNFalpha-induced E-selectin immunofluorescence imaging, at 2 µM; active compounds read high
# maps each entry to its inhibition
# value in %; strip the unit string

Cc1cccc(C)c1OCC(=O)Nc1cccc(NC(=O)c2ccco2)c1 | -10.3
Cc1nc(NC2=NCN(CCCN3CCOCC3)CN2)nc2c(C)cccc12 | 35.4
CS(=O)(=O)Nc1ccc(C(=O)NCc2ccco2)cc1 | 11.9

Query string: Could you please provide reported inhibition for `O=C(Cn1nnc2c(cnn2-c2ccc(F)cc2)c1=O)c1ccccc1F` ? Thanks!
Result string: -86.3

Query string: Could you please provide reported inhibition for `c1ccc2c(c1)Cn1c-2nc2ccccc21` ? Thanks!
Result string: -26.5

Query string: Could you please provide reported inhibition for CCC1(CC)C(=O)C(C)(C)C(=O)OC1c1cccs1 (centres undefined) ? Thanks!
Result string: -18.3

Query string: Could you please provide reported inhibition for `CCC(=O)/C=C1\Sc2ccc(OC)cc2N1CCO` ? Thanks!
Result string: -28.2
